FYI, the data here is from patent US7858621B2.

Target System: vanilloid receptor (Rattus norvegicus, UniProt O35433)
Construct: DRG nerve cells from the primary culture of 2 days were equilibrated; endogenous in cells; host or cells: primary culture of dorsal root ganglion neurons from neonatal SD rats
Sequence (O35433 whole entry): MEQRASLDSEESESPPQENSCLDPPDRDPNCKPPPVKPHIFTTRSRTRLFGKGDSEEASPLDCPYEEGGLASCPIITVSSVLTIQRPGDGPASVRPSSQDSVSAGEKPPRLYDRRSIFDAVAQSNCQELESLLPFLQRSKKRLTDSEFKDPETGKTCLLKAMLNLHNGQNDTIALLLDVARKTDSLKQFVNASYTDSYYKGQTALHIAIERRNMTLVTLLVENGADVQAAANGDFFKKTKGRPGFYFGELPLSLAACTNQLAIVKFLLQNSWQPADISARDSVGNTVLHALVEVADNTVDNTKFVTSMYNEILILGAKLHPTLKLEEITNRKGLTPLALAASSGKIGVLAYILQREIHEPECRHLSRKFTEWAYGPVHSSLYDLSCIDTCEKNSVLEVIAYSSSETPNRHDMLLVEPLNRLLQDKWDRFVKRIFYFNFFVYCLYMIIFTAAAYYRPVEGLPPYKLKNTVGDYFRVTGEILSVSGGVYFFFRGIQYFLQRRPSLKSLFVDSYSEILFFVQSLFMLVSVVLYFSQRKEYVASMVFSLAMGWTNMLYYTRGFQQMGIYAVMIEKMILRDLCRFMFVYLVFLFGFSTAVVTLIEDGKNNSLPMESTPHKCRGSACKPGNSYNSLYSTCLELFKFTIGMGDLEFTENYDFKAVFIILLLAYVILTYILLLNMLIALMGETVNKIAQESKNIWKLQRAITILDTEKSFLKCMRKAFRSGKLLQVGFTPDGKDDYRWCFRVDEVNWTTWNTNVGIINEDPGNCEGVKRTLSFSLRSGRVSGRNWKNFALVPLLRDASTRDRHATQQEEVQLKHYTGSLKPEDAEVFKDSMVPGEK
Test Protocol: 45Ca influx test in cultured neonatal rat DRG neurons, inhibition of capsaicin response
Assay type: cell-based
Reported Conditions: neonatal rat DRG neurons, capsaicin 0.5 μM, 45Ca influx; read-out: Antagonist Calcium Uptake Test (IC50)
Quantity Measured: pIC50
Quick note: pIC50 means taking -log10 of the concentration in moles per liter.

// solved cases for pIC50 follow
{"Compound": "C#Cc1cc(CNC(=O)/C=C/c2ccc(C(F)(F)F)nc2/C=C/c2ccccc2)cc(F)c1NS(C)(=O)=O", "pIC50": 6.35}
{"Compound": "Cc1cc(CNC(=O)/C=C/c2ccc(C(F)(F)F)nc2N(C)c2ccccc2)ccc1NS(C)(=O)=O", "pIC50": 6.92}
{"Compound": "CC(C)Sc1nc(C(F)(F)F)ccc1/C=C/C(=O)NCc1ccc(NS(C)(=O)=O)c(F)c1", "pIC50": 6.04}

Q: # returns recorded pIC50 (system: vanilloid receptor (Rattus norvegicus, UniProt O35433)) for C#Cc1cc(CNC(=O)/C=C/c2ccc(C(F)(F)F)nc2N2CCC(OC)C2)cc(F)c1NS(C)(=O)=O (stereo not shown)
A: 6.74

====

Below: a set of entries, each annotated with reported IC50.
Target System: vanilloid receptor (Rattus norvegicus, UniProt O35433)
Construct: DRG nerve cells from the primary culture of 2 days were equilibrated; endogenous in cells; host or cells: primary culture of dorsal root ganglion neurons from neonatal SD rats
Test Protocol: 45Ca influx test in cultured neonatal rat DRG neurons, inhibition of capsaicin response
Format: cell-based
Reported Conditions: neonatal rat DRG neurons, capsaicin 0.5 μM, 45Ca influx; read-out: Antagonist Calcium Uptake Test (IC50)
Please respond with the number in nM and leave the unit unwritten.

Below: 5 compounds and their reported IC50.
{"Smiles Str": "C#Cc1cc(CNC(=O)/C=C/c2ccc(Br)nc2)cc(F)c1NS(C)(=O)=O", "IC50 (nM)": 5900}
{"Smiles Str": "C#Cc1cc(CNC(=O)/C=C/c2ccc(C(F)(F)F)nc2OCCOC)cc(F)c1NS(C)(=O)=O", "IC50 (nM)": 370}
{"Smiles Str": "CS(=O)(=O)Nc1c(F)cc(CNC(=O)/C=C/c2ccc(C(F)(F)F)nc2CCc2ccccc2)cc1C(F)(F)F", "IC50 (nM)": 400}
{"Smiles Str": "C[C@@H](NC(=O)/C=C/c1ccc(C(F)(F)F)nc1N1CCCCC1)c1cc(F)c(NS(C)(=O)=O)c(F)c1", "IC50 (nM)": 120}
{"Smiles Str": "CC(C)Nc1nc(C(F)(F)F)ccc1/C=C/C(=O)NCc1cc(F)c(NS(C)(=O)=O)c(F)c1", "IC50 (nM)": 130}

Q: Given the entry CC(C)c1nc(C(F)(F)F)ccc1/C=C/C(=O)N[C@H](C)c1ccc(NS(C)(=O)=O)c(F)c1 , what IC50 was observed with vanilloid receptor (Rattus norvegicus, UniProt O35433)?
A: 41

Q: Notebook: pull reported IC50 for vanilloid receptor (Rattus norvegicus, UniProt O35433), entry CC(C)Cc1nc(C(F)(F)F)ccc1/C=C/C(=O)NCc1ccc(NS(C)(=O)=O)c(F)c1
A: 220
